inhibition at 10 µM values for the molecules below.
Molecular target: human RIPK1 (1-375) (Homo sapiens, UniProt Q13546)
Construct: human RIPK1 (1-375) gene; GST; made in house; host or cells: Sf-9 insect cells
Sequence (Q13546 1-375): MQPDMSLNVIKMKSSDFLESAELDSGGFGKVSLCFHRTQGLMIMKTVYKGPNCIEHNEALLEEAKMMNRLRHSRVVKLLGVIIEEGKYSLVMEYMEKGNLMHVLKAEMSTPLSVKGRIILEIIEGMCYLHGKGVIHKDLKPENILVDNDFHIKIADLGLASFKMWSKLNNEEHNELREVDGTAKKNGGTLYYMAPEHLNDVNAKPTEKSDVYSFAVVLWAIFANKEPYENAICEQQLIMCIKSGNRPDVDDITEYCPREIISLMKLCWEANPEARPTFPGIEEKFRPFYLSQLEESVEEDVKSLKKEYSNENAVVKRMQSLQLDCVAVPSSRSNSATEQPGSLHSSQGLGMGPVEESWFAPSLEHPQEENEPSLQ
Experiment: Human RIPK1 enzyme inhibitory effect (ADP-Glo Kinase Assay)
Format: biochemical
Conditions: read-out: human RIPK1 enzyme inhibitory effect at 10 μM (% inhibition), 10 μM test compound; well without enzyme = 100% inhibition

Some solved entries appear below for comparison.
# molecule, inhibition at 10 µM
measured = [
    ("CN1C(=O)[C@@H](N2CCc3c(nn(Cc4ccccc4)c3O)C2=O)COc2ccccc21 [Example 49]", "87%"),
    ("O=C1Nc2ccccc2CCC1N1CCn2nc(Cc3ccccc3)cc2C1=O (centres unmarked) [Example 18]", "72%"),
    ("CN1C(=O)[C@@H](N2CCc3cn(Cc4cccc(F)c4)nc3C2=O)CSc2ccccc21 [Example 156]", "97%"),
    ("Cc1c2c(nn1Cc1ccccc1)C(=O)N([C@H]1COc3cc(Br)ccc3N(C)C1=O)CC2 [Example 84]", "101%"),
    ("Cc1c2c(nn1Cc1ccccc1F)C(=O)N([C@H]1COc3cc(C#N)ccc3N(C)C1=O)CC2 [Example 112]", "100%"),
    ("CN1C(=O)[C@@H](N2CCc3ccc(Cc4ccccc4)nc3C2=O)COc2ccccc21 [Example 17]", "97%"),
    ("CN1C(=O)[C@@H](N2CCc3cn(Cc4ccccc4)nc3C2=O)COc2cc(C#N)ccc21 [Example 13]", "99%"),
]

Value of inhibition at 10 µM reported for the molecule CN1C(=O)[C@@H](N2CCc3c(nn(Cc4ccccc4)c3CO)C2=O)COc2ccccc21 [Example 52] is 98%

Values from patent US10787462B2
